test-target: Calmodulin-1 (Homo sapiens) (UniProt P0DP23)
assay-explanation: calcium-bound CALM1 binders on microarrays, profiling panel, artefact control for SMM control-protein annotation, biochemical, small-molecule microarray, Cy5-labelled CALM1, plus calcium (AID 1112);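 also: score merges spot fluorescence with signal to noise from triplicate slides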
assay-context: Cy5-CALM1 binding fluorescence, higher = more signal
Provide the reported composite z-score of each item.
Lab note: jot the number down without any unit.

Q: Let me know recorded composite z-score for COc1ccc(COC(=O)NN=C2C[C@@H](O)[C@@H](O)[C@@H]3[C@@H]4C(=O)N([C@@H](C)c5ccccc5)C(=O)[C@@H]4CC[C@H]23)cc1 , thanks.
Ans: 0.073

Q: // fetch composite z-score given entry COC(=O)CC=C[C@@H](C)[C@@H](C=NOC[C@@H](O)[C@H]1O[C@@H]2OC(C)(C)O[C@@H]2[C@H]1O)OC
Ans: -0.565

Q: Report composite z-score for C[C@@H]1C=CCC(=O)OC[C@H](C)C(=O)N[C@@H](Cc2ccccc2)C(=O)OC1
Ans: -0.62

Q: Determine from records and report composite z-score for CO[C@H]1COC(=O)CC=C[C@H](C)[C@H](OC)COC(=O)[C@@H](C)NC(=O)CC=C[C@@H]1C
Ans: -1.49

----------
For each record, write down the corresponding z-score.
assay-explanation: RPMI8226 myeloma cell viability, profiling panel, resazurin fluorescence, basal, 24 h, PK04 Diversity Set (AID 1180);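 also: RPMI8826 multiple myeloma cell line at 5000 cells per well; test concentration not given here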
assay-context: higher = more signal

Q: Complete the entry with z-score for CCN1C(=O)[C@H]2[C@H]3[C@H](O)[C@H](O)CC(=NOCC(C)C)[C@H]3CC[C@H]2C1=O
Ans: -0.971

Q: # return recorded z-score for entry O=C1[C@H]2[C@H]3[C@H](O)[C@H](O)CC(=NO[C@@H]4O[C@H](CO)[C@@H](O)[C@H](O)[C@H]4O)[C@@H]3CC[C@H]2C(=O)N1c1cccc(Oc2ccccc2)c1
Ans: 0.279

Q: Return reported z-score. Input compound: CC(=O)OC[C@H]1O[C@H](CC=NOC[C@@H](O)COCc2ccco2)C=C[C@@H]1OC(C)=O
Ans: 0.396

----------
test-target: Dickkopf-related protein 1 (Homo sapiens) (UniProt O94907)
Sequence (O94907 whole entry, looked up): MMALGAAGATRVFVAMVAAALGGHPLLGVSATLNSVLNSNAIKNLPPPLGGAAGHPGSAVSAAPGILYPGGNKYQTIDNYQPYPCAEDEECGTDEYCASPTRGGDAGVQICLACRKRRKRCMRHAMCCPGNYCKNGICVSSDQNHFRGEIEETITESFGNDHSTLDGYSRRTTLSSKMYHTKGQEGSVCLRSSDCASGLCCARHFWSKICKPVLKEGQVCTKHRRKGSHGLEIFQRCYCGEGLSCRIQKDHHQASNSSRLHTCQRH
assay-explanation: DKK1 binders on small-molecule microarrays, primary screen, biochemical, small-molecule microarray, 635 nm fluorescence scan (AID 1106);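 also: score merges emission near 667 nm with signal to noise over three replicate slides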
assay-context: DKK1 binding, higher = more signal
Would you mind telling me the reported composite z-score of each entry?
Keep the answer to the number alone.

Q: Return reported composite z-score for target or system Dickkopf-related protein 1 (Homo sapiens) (UniProt O94907), item Cc1ccc(C(C)C)n1C(=O)OC(C)(C)C .
Ans: 0.768

Q: Give measured composite z-score for CC(=O)OC[C@H]1O[C@H](CC=NOC[C@@H](O)COCc2ccco2)C=C[C@@H]1OC(C)=O (Dickkopf-related protein 1 (Homo sapiens) (UniProt O94907)).
Ans: 1.74

Q: Fetch value of composite z-score on Dickkopf-related protein 1 (Homo sapiens) (UniProt O94907) for O=C1[C@H]2[C@H]3[C@H](O)[C@H](O)CC(=NO[C@@H]4O[C@H](CO)[C@@H](O)[C@H](O)[C@H]4O)[C@@H]3CC[C@H]2C(=O)N1c1cccc(Oc2ccccc2)c1 .
Ans: 0.701

Q: State, for Dickkopf-related protein 1 (Homo sapiens) (UniProt O94907), measured composite z-score of the compound listed here: C=CC[C@@H]1C=C[C@H](ON=C(C)CCN2CCCCc3nc(C)c(C)cc32)[C@@H](CO)O1
Ans: 1.63

Q: Enter recorded composite z-score with Dickkopf-related protein 1 (Homo sapiens) (UniProt O94907) for CCN1C(=O)[C@H]2[C@H]3[C@H](O)[C@H](O)CC(=NOCC[C@@H]4C=C[C@H](OC(C)=O)[C@@H](COC(C)=O)O4)[C@@H]3CC[C@H]2C1=O here.
Ans: 0.476
